Assay: soluble fraction after stress (log2 fold change); higher = more stays soluble; pooled small domains, quantitative proteomics
Settings: stress: 50 degC
EXPERIMENTAL_ENDPOINT: soluble fraction (log2)
Please give the numeric answer without any surrounding text.

Example entries begin here.
# SEQ_TEXT, soluble fraction (log2)
rows = [
    ("HMPEVYPFEVAEDDAGKRLDVFLSEEIEEFTRSFIQKLIAGGLASVNRAPARASYRVKPRDLVELQVPE", -0.448),
    ("HMEFVEERRNRMLDYIGENKRADVPELARHFDVTEVTIRRDLLILEQDGKLIRTHGGAMINR", -0.433),
    ("HMEKLSMLKIKELFRLAIEMNLSHRQIAQSLNVSHTVVNRYLKRFKKSNLSYETLLKLGDKEIISALYEH", -2.29),
    ("HMSHGNAALTPRQRLRLARLVVDDQWSVSAAAEFFRVSYPTAAKWARRYVELGPAGMADRSS", -1.42),
    ("HMPLLSEWDAALEELWAKLGDVPMDPETERMDAPFLGFPAGTPREDIWHWFDERHSKGVAHLLYG", -2.37),
    ("HMSDVVFRINANGLNVSGLANGERVSVYDTTGKLVTTAVSTQDNGTLNLPLKQSGGIYIARTQSGVSFKFT", -0.411),
]

Q) Determine its reported soluble fraction (log2): `HMSSQVFLGQKNSIAKYDLNENKPIWTKEIKGTPLILSTWKDMLLIQIQTWVSYTHMLVKQENGQTVWE`
A) 0.318

Q) Determine its reported soluble fraction (log2): `HMKNLDILTPKEIEVLNLVAKGYSNSKISKELDIAEVTVKKHIGSMFQKLDVKDRLSLALIL`
A) -0.118

---

Assay: soluble fraction after stress (log2 fold change); higher = more stays soluble; pooled small domains, quantitative proteomics
Conditions: stress: 50 degC
soluble fraction (log2) of -0.2 or higher: 1.0. Under -0.2: 0.0.

# SEQ_TEXT, LABEL_VALUE
measured = [
    ("HMGGGVSSSLAGNVFKVLLPAGSVVEQGQAVIVLEAMKMETEVNAPKSGSVSSVFVNEGDTVEVGDLLFAI", 1.0),
]

Q) Record `HMIHSEDMDDHILGHKLVDQYLNKHIEFDNIKKAWNYHTVAIKKFGRYPHRNKILKRESTIEEIDFLKQP` ; criterion: soluble fraction (log2) no lower than -0.2. Met?
A) 1.0

Q) Record `HMRKYEAVPASVVPAQIQEYVAKSNFPNQYIRKIERNKYTWEIELSNGLEIKFDRQFNVIGFD` ; criterion: soluble fraction (log2) no lower than -0.2. Met?
A) 0.0

Q) Record `HMEEPEFEPYVVRLTAIALNVRTGPGTQYPVAMVIRGGGAFTIVAEENGFGLLKSGAGWIMLQHTERV` ; criterion: soluble fraction (log2) no lower than -0.2. Met?
A) 0.0

---

Assay: soluble fraction after stress (log2 fold change); higher = more stays soluble; pooled small domains, quantitative proteomics
Conditions: stress: 50 degC
EXPERIMENTAL_ENDPOINT: soluble fraction (log2)
Please give the numeric answer without any surrounding text.

Example entries begin here.
# SEQ_TEXT, EXPERIMENTAL_ENDPOINT, READING
measured = [
    ("HMPGPAEMPGWITARAKKLGGQITPEAARALAAEMGSDTEQASREIEKLLTYVDYRRPVEEEDVALLTA", "soluble fraction (log2)", -0.0046),
    ("HMNFIPGEKINLKIVQEGKEKNQGVGYLSDGTMVIVENGSQKLGQDVEVVVIKNIQSSAGKIVFGDISK", "soluble fraction (log2)", 0.0978),
    ("HMSVTVPDVKRMQAEDAKALLSRYRLRSEVIDSVYVDNIPRGAVVEQIPRENSSVKENRIVFLTINSN", "soluble fraction (log2)", -0.363),
]

Q) Determine its reported soluble fraction (log2): `HMKGSIFLDEATKMVDNSALKSLNTFLEEYARETNNQIFLISHQETPAEVTQIKLKKVGGETSYE`
A) 0.124

These entries and their values trace back to the domain aggregation screens of Martell et al. (2025).
